Recorded Herbicidal action against SETVI for the following compounds
# Tested on: SETVI
# procedureSummary: Post-emergence herbicidal action
# Type: in vivo
# testContext: Table 8, post-emergence (PO), 320 g/ha, assessed after about 3 weeks
Write it as a number; the unit % goes unstated.

In the examples that follow, each entry is paired with its recorded Herbicidal action against SETVI.
Nc1cc(-c2ccc3ncsc3c2)nc(C(=O)OCc2cccc(Cl)c2)c1Cl [Example I-60] : 80
Nc1cc(-c2ccc3ncsc3c2)nc(C(=O)OCc2ccc(Cl)cc2)c1Cl [Example I-69] : 80
Nc1cc(-c2ccc3ccoc3c2)nc(C(=O)OCc2c(F)c(F)c(F)c(F)c2F)c1Cl [Example I-54] : 80

INPUT: Would you mind telling me what Herbicidal action against SETVI value was observed for Nc1cc(-c2ccc3ccsc3c2)nc(C(=O)OCc2cccc(Cl)c2)c1Cl [Example I-50] ?
OUTPUT: 40

---

Listed here are compounds together with their documented Herbicidal action against SETVI.
# System: SETVI
# procedureSummary: Post-emergence herbicidal action
# Assay type: in vivo
# testContext: Table 6, post-emergence (PO), 320 g/ha, assessed after about 3 weeks
# Experimental: Seeds of monocotyledonous and dicotyledonous weed and crop plants are laid out in sandy loam soil in wood-fiber pots, covered with soil and cultivated in a greenhouse under good growth conditions. 2 to 3 weeks after sowing, the test plants are treated at the one-leaf stage. […]
Give the quantity in %, number only.

// solved cases for Herbicidal action against SETVI follow
Nc1cc(-c2ccc3occc3c2)nc(C(=O)OCc2ccc(C(F)(F)F)cc2)c1Cl [Example I-36] : 80
Nc1c(F)c(-c2ccc3sccc3c2)nc(C(=O)OCc2ccc(F)cc2F)c1Cl [Example I-56] : 80
Nc1c(F)c(-c2ccc3occc3c2)nc(C(=O)OCc2ccc(Cl)cc2)c1Cl [Example I-47] : 70
Nc1cc(-c2ccc3ccsc3c2)nc(C(=O)OCc2ccccc2Cl)c1Cl [Example I-44] : 60
COc1c(F)ccc(COC(=O)c2nc(-c3ccc4ccoc4c3)cc(N)c2Cl)c1F [Example I-28] : 100

INPUT: # lookup: Herbicidal action against SETVI of Nc1cc(-c2ccc3ccoc3c2F)nc(C(=O)OCc2ccc(Cl)cc2)c1Cl [Example I-49]
OUTPUT: 80

INPUT: Could you share which Herbicidal action against SETVI value was measured for COc1c(Cl)ccc(Cl)c1COC(=O)c1nc(-c2ccc3occc3c2)cc(N)c1Cl [Example I-57] ?
OUTPUT: 80

INPUT: What does the data say about its Herbicidal action against SETVI? Entry: Nc1c(F)c(-c2ccc3ccsc3c2)nc(C(=O)OCc2ccc(F)cc2F)c1Cl [Example I-42]
OUTPUT: 20

---

Recorded measurements of Herbicidal action against ABUTH, one per entry
# Tested on: ABUTH
# procedureSummary: Post-emergence herbicidal action
# Type: in vivo
# testContext: Table 5, post-emergence (PO), 320 g/ha, assessed after about 3 weeks
Write it as a number; the unit % goes unstated.

Nc1cc(-c2ccc3sccc3c2)nc(C(=O)OCc2ccc(F)cc2F)c1Cl [Example I-18] : 100
Nc1c(Cl)c(C(=O)OCc2cccc(C(F)(F)F)c2)nc(Cl)c1-c1ccc2sccc2c1 [Example I-21] : 90

Attention now turns to another entry.
INPUT: Give ABUTH Herbicidal action against ABUTH for Nc1cc(-c2ccc3ccsc3c2)nc(C(=O)OCc2ccc(Cl)cc2)c1Cl [Example I-14]
OUTPUT: 100

---

# System: VIOTR
# procedureSummary: Pre-emergence herbicidal action
# Format: in vivo
# testContext: Table 2, pre-emergence (PE), 320 g/ha, scored after 3 weeks
Reported values of Herbicidal action against VIOTR for individual entries
// return numeric value only (unit: %, not printed)

Below: 4 molecules and their reported Herbicidal action against VIOTR.
Nc1c(F)c(-c2ccc3ccoc3c2)nc(C(=O)OCc2ccc(F)cc2)c1Cl : 40
Nc1cc(-c2ccc3occc3c2)nc(C(=O)OCc2cc(F)c(F)cc2F)c1Cl : 60
Nc1cc(-c2ccc3occc3c2)nc(C(=O)OCc2ccc(F)c(F)c2F)c1Cl : 30
COc1c(F)ccc(COC(=O)c2nc(-c3ccc4ccsc4c3)cc(N)c2Cl)c1F : 20

INPUT: Using the record for Nc1cc(-c2ccc3ccsc3c2)nc(C(=O)OCc2cccc(F)c2)c1Cl , report its Herbicidal action against VIOTR.
OUTPUT: 40

INPUT: Please report the recorded Herbicidal action against VIOTR for Nc1cc(-c2ccc3sccc3c2)nc(C(=O)OCc2cccc(F)c2)c1Cl .
OUTPUT: 60

INPUT: For the molecule shown here, Nc1cc(-c2ccc3occc3c2)nc(C(=O)OCc2ccc(F)cc2)c1Cl , give the reported Herbicidal action against VIOTR.
OUTPUT: 50

INPUT: Which measured Herbicidal action against VIOTR value corresponds to Nc1cc(-c2ccc3ccsc3c2)nc(C(=O)OCc2ccc(F)cc2F)c1Cl ?
OUTPUT: 20

INPUT: Bench note: what Herbicidal action against VIOTR did Nc1cc(-c2ccc3occc3c2)nc(C(=O)OCc2c(F)cc(F)cc2F)c1Cl show?
OUTPUT: 40

INPUT: Herbicidal action against VIOTR lookup needed for Nc1cc(-c2ccc3sccc3c2)nc(C(=O)OCc2ccc(C(F)(F)F)cc2)c1Cl , thanks.
OUTPUT: 30

INPUT: What does the record list as Herbicidal action against VIOTR for Nc1cc(-c2ccc3occc3c2)nc(C(=O)OCc2ccc(C(F)(F)F)cc2)c1Cl ?
OUTPUT: 0

---

# Test system: SETVI
# procedureSummary: Post-emergence herbicidal action
# Assay type: in vivo
# testContext: Table 6, post-emergence (PO), 320 g/ha, assessed after about 3 weeks
# Herbicidal action against SETVI per entry

Examples with their reported Herbicidal action against SETVI follow.
Nc1cc(-c2ccc3ccoc3c2)nc(C(=O)OCc2ccc(Cl)cc2)c1Cl : 90%
Nc1cc(-c2ccc3ccoc3c2)nc(C(=O)OCc2cc(F)c(F)cc2F)c1Cl : 80%

Now consider the entry below.
INPUT: Request the reported Herbicidal action against SETVI associated with Nc1c(F)c(-c2ccc3occc3c2)nc(C(=O)OCc2c(F)cc(F)cc2F)c1Cl
OUTPUT: 20%
